Item-by-item account of Emission maxima (nm)
# assay-method-text: UV/VIS and fluorescence studies (spectral properties of the probes in four solvents)
# Type: physicochemical
# condition-notes: solvent MeOH; 1 µM or 0,1 µM
measurement-type: Emission maxima (nm)

In [3]: df
Out[3]:
                                smiles_data  measured_number
0  CCCCCCN1C(=O)c2cccc3c2c(cc2oc(=O)c(C(=O)NCCN(C)C)cc23)C1=O              442
1  CN(C)CCNC(=O)c1cc2c(cc3c4c(cccc42)C(=O)N(C)C3=O)o1              420
2  CCCCCCN1C(=O)c2cccc3c2c(cc2cc(C(=O)NCCN(C)C)c(=O)oc23)C1=O              435
3  CCCCCCN1C(=O)c2cccc3c2c(cc2oc(C(=O)NCCN(C)C)cc23)C1=O              421
4  CCCCCCN1C(=O)c2cccc3c2c(cc2cc(C(=O)NCCN(C)C)oc23)C1=O              416
